Reference for the values: patent US6544994B2

# runDescription: Competitive superoxide trapping (CST) with DEPMPO in HX/XO system, EPR
# Type: biochemical
# assayConditions: HX/XO, pH 7.4, 37° C.
observationType: k/kd, reaction rate with superoxide relative to reference spin trap DEPMPO

[[record]]
compound = "O=C1O[C@H]([C@@H](O)CO)C(O)=C1O [ascorbic acid, reference compound]"
recordedvalue = 4400

[[record]]
compound = "CN1c2c(nc(N)[nH]c2=O)NC[C@@H]1CNc1ccc(C(=O)N[C@@H](CCC(=O)O)C(=O)O)cc1 [5-methyl-(6 S)-tetrahydrofolic acid]"
recordedvalue = "about 175"

[[record]]
compound = "N=C(N)NCCC[C@H](N)C(=O)O"
recordedvalue = "< 10^−2"

[[record]]
compound = "CN1c2c(nc(N)[nH]c2=O)NC[C@H]1CNc1ccc(C(=O)N[C@@H](CCC(=O)O)C(=O)O)cc1 [5-methyl-(6R)-tetrahydrofolic acid]"
recordedvalue = "about 175"

